Source of measurements: ChEMBL document CHEMBL5543127

Measured MIC, listed per entry for reference.
System: Bacillus pumilus
ASSAY_PROTOCOL: Anti-microbial activity against Bacillus pumilus CMCC63202 incubated for 20 hrs By CLSI based micro-dilution method
Type: functional

# SMILES, MIC
measured = [
    ("O=C(NNc1nc2ccccc2s1)c1ccccc1F", "512 µg/mL"),
    ("Cn1c(=NNC(=O)CCCCOc2ccc(F)cc2)sc2ccccc21", "256 µg/mL"),
    ("O=C(CCCCOc1cccc(F)c1)NNc1nc2ccccc2o1", "> 512 µg/mL"),
    ("O=C(CCCCOc1ccc(Cl)cc1)NNc1nc2ccccc2o1", "> 512 µg/mL"),
    ("O=C(CCCOc1ccc(Cl)cc1)NNc1nc2ccccc2o1", "512 µg/mL"),
]

Q: Supply recorded MIC for `O=C(CCCOc1cccc(F)c1)NNc1nc2ccccc2o1` here.
A: > 512 µg/mL
